Catalogue of FACS binding data values
assayed_target: Mutant CD33-GFP JS28 (S28L) on 293FT cells (UniProt P20138)
Sequence (P20138 18-364 S28L): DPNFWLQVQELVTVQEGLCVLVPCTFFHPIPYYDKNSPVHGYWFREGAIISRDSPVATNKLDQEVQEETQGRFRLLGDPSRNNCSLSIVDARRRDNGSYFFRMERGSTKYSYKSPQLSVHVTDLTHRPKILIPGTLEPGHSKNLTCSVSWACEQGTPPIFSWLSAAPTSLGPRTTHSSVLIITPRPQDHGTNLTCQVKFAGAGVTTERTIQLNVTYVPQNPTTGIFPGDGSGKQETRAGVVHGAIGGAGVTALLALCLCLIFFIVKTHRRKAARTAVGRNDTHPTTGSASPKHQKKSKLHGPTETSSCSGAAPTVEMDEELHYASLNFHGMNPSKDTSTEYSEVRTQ
test_name: FACS, mutant CD33-GFP on 293FT cells

binder | FACS binding data
sdCD33_2 (VHH) VHH: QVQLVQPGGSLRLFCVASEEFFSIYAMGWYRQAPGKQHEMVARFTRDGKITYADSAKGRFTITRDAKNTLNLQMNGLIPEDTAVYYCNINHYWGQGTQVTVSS | 99.5
sdCD33_7 (VHH, sdAb from a naive llama phage library; also called 420; sdAb420) VHH: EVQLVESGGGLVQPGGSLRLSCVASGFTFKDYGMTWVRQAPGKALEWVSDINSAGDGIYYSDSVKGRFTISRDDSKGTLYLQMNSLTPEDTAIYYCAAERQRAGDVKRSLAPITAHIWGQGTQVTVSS | 99.6
sdCD33_5 (VHH, sdAb from a naive llama phage library; also called 413; sdAb413) VHH: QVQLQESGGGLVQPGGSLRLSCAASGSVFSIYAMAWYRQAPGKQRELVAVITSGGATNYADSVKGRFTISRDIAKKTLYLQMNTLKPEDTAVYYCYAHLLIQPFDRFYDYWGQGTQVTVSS | 99.4
sdCD33_4 (VHH) VHH: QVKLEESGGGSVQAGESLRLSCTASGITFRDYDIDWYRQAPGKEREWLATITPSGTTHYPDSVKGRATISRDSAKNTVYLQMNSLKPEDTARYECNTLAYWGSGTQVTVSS | 99.6
sdCD33_11 (VHH, sdAb from a naive llama phage library; also called 430; sdAb430) VHH: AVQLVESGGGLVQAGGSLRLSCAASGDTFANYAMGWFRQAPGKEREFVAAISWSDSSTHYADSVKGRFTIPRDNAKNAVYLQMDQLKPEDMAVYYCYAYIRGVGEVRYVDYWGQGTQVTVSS | 99.7
sdCD33_6 (VHH, sdAb from a naive llama phage library; also called 416; sdAb416) VHH: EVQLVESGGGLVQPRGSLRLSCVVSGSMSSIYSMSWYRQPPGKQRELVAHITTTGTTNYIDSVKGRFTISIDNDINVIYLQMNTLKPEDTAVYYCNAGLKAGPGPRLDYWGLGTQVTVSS | 99.6
sdCD33_3 (VHH) VHH: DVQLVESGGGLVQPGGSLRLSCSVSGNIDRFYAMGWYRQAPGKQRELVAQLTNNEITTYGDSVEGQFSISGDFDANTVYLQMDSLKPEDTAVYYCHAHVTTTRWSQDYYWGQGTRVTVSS | 99.6

Reference source: patent US20230365675A1
